From: paper PMC12195648

# Test system: KCL22-B8 cells
# assay method text: Cytotoxicity, resazurin assay, KCL22-B8 (Bcr-Abl T315I)
# Assay type: cell-based, human
# experimental conditions: Homo sapiens, 72 h, resazurin, GI50 ± SD; Bcr-Abl T315I, imatinib-resistant
measured metric: GI50 (µM)
# output: bare number, implied unit µM

Study these solved cases before continuing.
- compound: "OCCN1CCN(c2ccc(Nc3nc(Nc4cccc(Br)c4)c4ncn(CC5CC5)c4n3)cc2)CC1 [Compound 7d]"
  unit spec: "µM"
  GI50: 20.1
- compound: "COc1cc(Nc2nc(Nc3ccc(N4CCN(CCO)CC4)cc3)nc3c2ncn3CC2CC2)ccc1Br [Compound 7g]"
  unit spec: "µM"
  GI50: 15.4
- compound: "OCCN1CCN(c2ccc(Nc3nc(Nc4ccc(Cl)c(C(F)(F)F)c4)c4ncn(CC5CC5)c4n3)cc2)CC1 [Compound 7f]"
  unit spec: "µM"
  GI50: 15.4

Q: Requested read-out GI50, target or system KCL22-B8 cells, entry COC(=O)c1ccc(Nc2nc(Nc3ccc(N4CCN(CCO)CC4)cc3)nc3c2ncn3CC2CC2)cc1Cl [Compound 7e]
Result: 13.8

Q: Requested read-out GI50, target or system KCL22-B8 cells, entry N#Cc1cccc(Nc2nc(Nc3ccc(N4CCN(CCO)CC4)cc3)nc3c2ncn3CC2CC2)c1 [Compound 7b]
Result: 17.9

Q: Requested read-out GI50, target or system KCL22-B8 cells, entry OCCOCCN1CCN(c2ccc(Nc3nc(Nc4cccc(F)c4)c4ncn(CC5CC5)c4n3)cc2)CC1 [Compound 7a]
Result: 17.4
